- Test system: KM12 colon
- method_summary: NCI-60 one-dose screen, 48 h
- assay_setup: 10 µM unless noted
About 83,000 compounds went through this panel and 20% of them were active in at least one assay; those are over-represented in the sample as a whole. Calls of active or inactive are those of the source. The calls were made as follows: active = growth percent below 10; inactive = the rest.
Select the matching outcome among Yes (active), No (inactive)

Use these answered entries as a reference point.
compound="C=C(CNCCc1ccc(O)cc1)[C@@H]1CC[C@]2(COC3CCCCO3)CC[C@]3(C)[C@H](CC[C@@H]4[C@@]5(C)CCC(N)C(C)(C)[C@@H]5CC[C@]43C)[C@@H]12 (stereo not given in full)" assay_system="KM12 colon" classification=Yes
compound=CC(=O)Nc1ccc(-c2cc3c(NCc4ccc(F)cc4)ncnc3s2)cc1 assay_system="KM12 colon" classification=No
compound=N#Cc1c(N)nc2c(nnn2-c2cccc(Br)c2)c1N assay_system="KM12 colon" classification=No
compound=CCCCCCNC(=O)c1cc(NCc2cc(O)ccc2O)ccc1O assay_system="KM12 colon" classification=No
compound=CCOc1ccc(S(=O)(=O)c2ccc(C)cc2)c2c1no[n+]2[O-] assay_system="KM12 colon" classification=No
compound=Nc1nc(Nc2ccc(Cl)cc2)nn1S(=O)(=O)c1ccc(-c2ccc(F)cc2)cc1 assay_system="KM12 colon" classification=No
compound=Fc1ccc(Nc2nc(Nc3ccc(-c4nc5ccccc5[nH]4)cc3)c3cn[nH]c3n2)cc1 assay_system="KM12 colon" classification=No
compound="COc1cc(C2CC(=O)Nc3n[nH]c(-c4ccccc4)c32)cc(OC)c1OC (stereo not given)" assay_system="KM12 colon" classification=No

Query: Dear all, I need the recorded test outcome for O=C1CSC(c2ccc(O)cc2)N1c1nnc(Cn2cnnc2)o1 (stereo not given) , thank you.
Result: No

Query: What was the test verdict on O=C1CCC(N2C(=O)c3cccc(NCCCC4CCN(CCNC(=O)c5cc6c(o5)C(=O)c5ccccc5C6=O)CC4)c3C2=O)C(=O)N1 (stereo not given) ?
Result: Yes

Query: Check the results log: what was the call for COc1ccc(/C=C(\C#N)n2nnc3cc(F)c(F)cc32)c(OC)c1OC ?
Result: No

Query: Fill in: this test's call for CCn1c(Sc2nnc(Nc3ccccc3)s2)nc2c1c(=O)n(C)c(=O)n2C is ___
Result: No

Query: What did the test return for CCOc1ccc2nc(-c3cccc(OCC(=O)NC(C)C)c3)nc(Nc3ccc(-c4cn[nH]c4)cc3)c2c1 ?
Result: Yes

Query: Dear colleague, could you share the recorded outcome for COc1ccc2cc(-c3ccc(C(=O)NN)c(C)n3)ccc2c1 when you have a moment?
Result: No

Query: recorded result category for CCNCCNc1cc(-c2ccc(C(F)(F)F)cc2)c(C#N)c2nc3cc(Cl)c(Cl)cc3n12 in this test
Result: Yes

Query: I would be grateful if you could indicate the recorded call for Cl.Fc1c[c-]c(-c2ccccn2)c(F)c1.[Pt].c1ccc(P(c2ccccc2)C([PH+](c2ccccc2)c2ccccc2)[PH+](c2ccccc2)c2ccccc2)cc1 .
Result: No

Query: Kindly provide the recorded test outcome for the following compound: Cc1cc(-c2ccccc2)cc(SC#N)[n+]1[O-]
Result: No

Query: I would be grateful if you could indicate the recorded call for N#Cc1c(-c2ccccc2)nc(SCC2CO2)nc1N1CCOCC1 (stereo not given) .
Result: No

Query: Look up the recorded call for O=c1oc2ccc(Cl)cc2cc1-c1cs/c(=N/N=C\c2ccc(Cl)cc2)n1/N=C/c1ccc(Cl)cc1 in this test.
Result: No

Query: Hi, sorry to bother you, what did the test record for Fc1ccc(Nc2nc3nonc3nc2Nc2ccc(F)cc2)cc1 ?
Result: Yes

Attribution: PubChem BioAssay (NCI)
